measured_on: human TSHR (Homo sapiens, UniProt P16473)
Construct: expressed in transfected cells
Sequence (P16473 21-764): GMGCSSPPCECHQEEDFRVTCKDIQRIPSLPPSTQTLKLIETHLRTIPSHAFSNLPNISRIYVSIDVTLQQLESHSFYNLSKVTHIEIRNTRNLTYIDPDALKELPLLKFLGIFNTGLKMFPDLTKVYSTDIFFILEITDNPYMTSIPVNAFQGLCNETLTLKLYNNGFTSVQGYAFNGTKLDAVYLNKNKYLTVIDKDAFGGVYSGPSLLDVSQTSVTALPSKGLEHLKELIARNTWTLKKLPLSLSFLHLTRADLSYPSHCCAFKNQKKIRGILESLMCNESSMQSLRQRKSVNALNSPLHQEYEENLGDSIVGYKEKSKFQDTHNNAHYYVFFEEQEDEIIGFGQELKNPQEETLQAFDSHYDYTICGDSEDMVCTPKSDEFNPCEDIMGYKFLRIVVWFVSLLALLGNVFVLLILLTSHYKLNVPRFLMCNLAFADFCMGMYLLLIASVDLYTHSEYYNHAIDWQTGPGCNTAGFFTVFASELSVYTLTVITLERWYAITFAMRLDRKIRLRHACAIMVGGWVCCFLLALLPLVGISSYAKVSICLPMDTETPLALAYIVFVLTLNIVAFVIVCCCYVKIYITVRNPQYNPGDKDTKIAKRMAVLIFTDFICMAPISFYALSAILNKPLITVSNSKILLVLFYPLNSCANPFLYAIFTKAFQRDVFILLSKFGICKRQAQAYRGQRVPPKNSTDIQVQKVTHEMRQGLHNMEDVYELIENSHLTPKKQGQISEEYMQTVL
test: Homogeneous Time Resolved Fluorescence (HTRF) cAMP assay, TSHR cell line
Format: cell-based
particulars: read-out: Maximum Activity compared to TSH, 100% activity = response of 30 mU/ml TSH, 0% = DMSO control
The compounds listed here are annotated with their Emax.
reported_endpoint: Emax (%)

[[record]]
compound = "COc1ccc(C2Nc3ccccc3C(=O)N2Cc2ccccc2C)cc1COc1ccc(NC(C)=O)cc1 (stereo not shown)"
reported_endpoint = "Emax"
quantitative_readout = 24

[[record]]
compound = "COc1ccc(CN(Cc2ccccc2)C(=O)C2CC2)cc1COc1ccc(NC(C)=O)cc1"
reported_endpoint = "Emax"
quantitative_readout = 74.8

[[record]]
compound = "COc1ccc(C(=O)C2C(=O)C(=O)N(Cc3ccco3)C2c2cccs2)cc1 (stereo not shown)"
reported_endpoint = "Emax"
quantitative_readout = 28

[[record]]
compound = "O=C(c1ccccc1O)N(Cc1ccccc1)Cc1cccs1"
reported_endpoint = "Emax"
quantitative_readout = 34

[[record]]
compound = "COc1ccc(C2Nc3ccc(NC(C)=O)cc3C(=O)N2Cc2cccc(Cl)c2)cc1COc1ccc(NC(C)=O)cc1 (stereo not shown)"
reported_endpoint = "Emax"
quantitative_readout = 122

[[record]]
compound = "COc1ccc(-c2nc3cccc(OC)c3c(=O)n2Cc2ccccc2)cc1COc1ccc(NC(C)=O)cc1"
reported_endpoint = "Emax"
quantitative_readout = 38

[[record]]
compound = "COc1ccc(CN(Cc2ccccc2)C(=O)c2ccno2)cc1COc1ccc(NC(C)=O)cc1"
reported_endpoint = "Emax"
quantitative_readout = 32

